Below is a list of entries, each paired with its recorded Minimum inhibitory concentration value.
- Tested on: Pseudomonas aeruginosa FADDI-PA01
- Type: cell-based
- applied-conditions: FADDI-
Where a SMILES comes first, the peptide text is derived from it. Bridges are numbered along the chain shown (N, C = ends). [ ]: non-standard residue; d: D form. The star is where a group is joined. X19 = O=C(c1ncc(C(F)(F)F)cc1Cl)*; X15 = O=C(c1ccc(Cl)nc1Cl)*; X33 = O=C(c1cncc(Br)c1)*; Dab = NCC[C@H](N)C(=O)O; Abu = CC[C@H](N)C(=O)O; Dap = NC[C@H](N)C(=O)O
Form entry: value (µg/mL) — number only.

compound: CC[C@@H]1NC(=O)[C@@H](CC(C)C)NC(=O)[C@H](CCN)NC(=O)[C@@H](NC(=O)[C@H](CN)NC(=O)[C@@H](NC(=O)[C@H](CCN)NC(=O)c2cncc(Br)c2)[C@@H](C)O)CCNC(=O)[C@H]([C@@H](C)O)NC(=O)[C@H](CCN)NC(=O)[C@H](CCN)NC1=O [Compound 23] (X33-[Dab]T[Dap][Dab][Dab][dL][Abu][Dab][Dab]T; lactam 4-C)
subject-of-test: Pseudomonas aeruginosa FADDI-PA01
unit-descriptor: µg/mL
Minimum inhibitory concentration: 0.5

INPUT: May I ask what Minimum inhibitory concentration has been recorded for CC[C@@H]1NC(=O)[C@@H](CC(C)C)NC(=O)[C@H](CCN)NC(=O)[C@@H](NC(=O)[C@H](CN)NC(=O)[C@@H](NC(=O)[C@H](CCN)NC(=O)c2ncc(C(F)(F)F)cc2Cl)[C@@H](C)O)CCNC(=O)[C@H]([C@@H](C)O)NC(=O)[C@H](CCN)NC(=O)[C@H](CCN)NC1=O [Compound 35] (X19-[Dab]T[Dap][Dab][Dab][dL][Abu][Dab][Dab]T; lactam 4-C) ?
OUTPUT: 0.25

INPUT: May I ask what Minimum inhibitory concentration has been recorded for CC[C@@H]1NC(=O)[C@@H](CC(C)C)NC(=O)[C@H](CCN)NC(=O)[C@@H](NC(=O)[C@H](CN)NC(=O)[C@@H](NC(=O)[C@H](CCN)NC(=O)c2ccc(Cl)nc2Cl)[C@@H](C)O)CCNC(=O)[C@H]([C@@H](C)O)NC(=O)[C@H](CCN)NC(=O)[C@H](CCN)NC1=O [Compound 7] (X15-[Dab]T[Dap][Dab][Dab][dL][Abu][Dab][Dab]T; lactam 4-C) ?
OUTPUT: 0.25
